assay summary: Dissociation constant, pKa of the compound
Assay type: physicochemical
Each record here notes measured pKa.
assay endpoint: pKa

>>> df
                           smiles_structure  endpoint_result
0  COCCN[C@H]1CC[C@@H](Nc2cc[nH]c(=O)c2-c2nc3ccccc3[nH]2)CC1              9.2
1  CCN[C@H]1CC[C@@H](Nc2cc[nH]c(=O)c2-c2nc3ccccc3[nH]2)CC1             10.5
2  O=c1[nH]ccc(N[C@H]2CC[C@@H](NCCF)CC2)c1-c1nc2ccccc2[nH]1              8.8
3  O=c1[nH]ccc(N[C@H]2CC[C@@H](NCC(F)F)CC2)c1-c1nc2ccccc2[nH]1              6.6
4  O=c1[nH]ccc(N[C@H]2CC[C@@H](NCC(F)(F)F)CC2)c1-c1nc2ccccc2[nH]1              4.8
